Overview of recorded Kd for various molecules
molecular target: Galectin-1 (Homo sapiens)
Sequence (P09382 whole entry): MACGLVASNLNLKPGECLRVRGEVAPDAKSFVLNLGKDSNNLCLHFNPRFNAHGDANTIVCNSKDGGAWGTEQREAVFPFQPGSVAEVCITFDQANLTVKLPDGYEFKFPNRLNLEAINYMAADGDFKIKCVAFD
Numeric answer only, unit µM assumed.

[[record]]
molecule = "CC(=O)N[C@H]1C(O)O[C@H](CO)[C@@H](O)[C@@H]1O[C@@H]1O[C@H](CO)[C@H](O)[C@H](O)[C@H]1O (some centres not stated)"
measured_endpoint = "Kd"
measure_unit = "µM"
observed_value = 161


Query molecule follows.
Q: Given OC[C@H]1O[C@@H](OC[C@H]2OC(O)[C@H](O)[C@@H](O)[C@@H]2O)[C@H](O)[C@@H](O)[C@H]1O (some centres not stated) , respond with its Kd.
Result: 1330

---

Overview of recorded IC50 for various compounds
biological target: UniProt:P09382; assay: Binding affinity to human Gal-1 assessed as inhibition of Gal-1 binding to immobilized asialofetuin pretreated with Gal-1 for 2 hrs followed by incubation with asialofetuin for 2 hrs by competitive solid phase assay; settings: read-out: IC50
Numeric answer only, unit mM assumed.

Field: example entries. Status: answers known.
[[record]]
compound = "CC(=O)N[C@H]1C(O)O[C@H](CO[C@@H]2O[C@H](CO)[C@H](O)[C@H](O)[C@H]2O)[C@@H](O)[C@@H]1O (some centres undefined)"
measured_on = "UniProt:P09382"
measured_endpoint = "IC50"
observed_value = 13

[[record]]
compound = "CC(=O)N[C@H]1C(O)O[C@H](CO)[C@@H](O[C@@H]2O[C@H](CO)[C@H](O)[C@H](O)[C@H]2O)[C@@H]1O (some centres undefined)"
measured_on = "UniProt:P09382"
measured_endpoint = "IC50"
observed_value = 1.97


Q: Given CC(=O)N[C@H]1C(O)O[C@H](CO)[C@@H](O)[C@@H]1O[C@@H]1O[C@H](CO)[C@H](O)[C@H](O)[C@H]1O (some centres undefined) , respond with its IC50.
Result: 2.05

Q: Given CC(=O)N[C@H]1[C@H](O[C@H]2[C@H](O)[C@@H](NC(C)=O)C(O)O[C@@H]2CO)O[C@H](CO[C@@H]2O[C@H](CO)[C@H](O)[C@H](O)[C@H]2O)[C@@H](O)[C@@H]1O (some centres undefined) , respond with its IC50.
Result: 21.2
